# study_target: UniProt P07824
# Sequence (P07824 whole entry): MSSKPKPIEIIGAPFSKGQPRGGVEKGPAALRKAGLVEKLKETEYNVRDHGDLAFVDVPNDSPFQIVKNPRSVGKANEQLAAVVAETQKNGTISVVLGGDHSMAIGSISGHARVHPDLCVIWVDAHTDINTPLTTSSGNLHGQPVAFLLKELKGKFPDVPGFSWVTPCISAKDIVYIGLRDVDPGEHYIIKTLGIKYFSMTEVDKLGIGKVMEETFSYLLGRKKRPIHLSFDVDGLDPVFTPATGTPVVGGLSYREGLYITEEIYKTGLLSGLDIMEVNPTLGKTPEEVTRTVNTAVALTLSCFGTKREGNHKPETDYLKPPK
# assay_procedure: Inhibition of Sprague-Dawley rat liver arginase 1 assessed as inhibition constant
# Type: tissue-based
value_kind: Ki (µM)

P = N=C(NO)NCC[C@H](N)C(=O)O
Q = N=C(NO)NCCC[C@H](N)C(=O)O
Between the entries labelled P and Q , which has a larger Ki value on record? Indicate which entry you chose by stating its label.
Q

====

# study_target: Nitric oxide synthase, inducible (Homo sapiens)
# Sequence (P35228 whole entry): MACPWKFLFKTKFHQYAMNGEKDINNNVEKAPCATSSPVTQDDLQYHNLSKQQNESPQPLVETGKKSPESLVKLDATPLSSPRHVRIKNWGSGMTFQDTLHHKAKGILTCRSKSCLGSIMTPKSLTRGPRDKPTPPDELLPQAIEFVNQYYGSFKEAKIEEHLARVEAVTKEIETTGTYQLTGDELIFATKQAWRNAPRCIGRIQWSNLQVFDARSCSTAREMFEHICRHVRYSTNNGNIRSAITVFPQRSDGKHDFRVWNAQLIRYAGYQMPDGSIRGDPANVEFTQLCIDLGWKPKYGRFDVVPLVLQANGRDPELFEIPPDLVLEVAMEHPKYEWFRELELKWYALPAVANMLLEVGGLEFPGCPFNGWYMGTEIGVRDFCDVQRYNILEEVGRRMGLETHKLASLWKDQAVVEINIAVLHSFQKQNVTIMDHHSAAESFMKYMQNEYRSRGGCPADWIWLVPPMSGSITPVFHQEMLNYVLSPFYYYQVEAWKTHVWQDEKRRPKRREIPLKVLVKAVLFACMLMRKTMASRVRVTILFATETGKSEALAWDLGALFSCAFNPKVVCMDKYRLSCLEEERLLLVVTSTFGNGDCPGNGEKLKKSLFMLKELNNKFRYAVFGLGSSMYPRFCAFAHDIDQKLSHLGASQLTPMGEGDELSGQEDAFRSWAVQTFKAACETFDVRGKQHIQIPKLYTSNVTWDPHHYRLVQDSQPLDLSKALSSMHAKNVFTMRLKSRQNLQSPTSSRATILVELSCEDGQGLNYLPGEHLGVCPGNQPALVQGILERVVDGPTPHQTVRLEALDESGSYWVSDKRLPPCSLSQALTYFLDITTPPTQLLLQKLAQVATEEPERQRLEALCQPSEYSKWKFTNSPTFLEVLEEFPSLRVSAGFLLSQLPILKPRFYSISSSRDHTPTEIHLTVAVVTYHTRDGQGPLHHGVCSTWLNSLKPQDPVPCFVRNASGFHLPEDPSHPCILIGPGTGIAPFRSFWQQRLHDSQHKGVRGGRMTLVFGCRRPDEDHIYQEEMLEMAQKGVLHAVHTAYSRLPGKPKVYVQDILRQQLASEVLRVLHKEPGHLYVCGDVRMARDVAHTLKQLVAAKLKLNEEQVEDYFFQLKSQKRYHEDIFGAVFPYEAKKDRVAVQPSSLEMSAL
# assay_procedure: Inhibition of human iNOS overexpressed in baculovirus infected Sf21 cells assessed as inhibition constant
value_kind: Ki (nM)
Form entry: value (nM) — number only.

// map C[C@H]1CC(=N)N[C@@H]2[C@H](Cl)[C@@H]21 (racemic) to recorded Ki (system: Nitric oxide synthase, inducible (Homo sapiens))
2

====

# study_target: UniProt P35228
# assay_procedure: Inhibition of human iNOS assessed as inhibition constant
value_kind: pKi
Quick note: pKi means taking -log10 of the concentration in moles per liter.

# compound, value_kind, recorded_measurement
records = [
    ("COC(=O)[C@@H](N)CCCNC(=N)N[N+](=O)[O-] [L-NAME]", "pKi", 4.15),
]

We now examine a further compound.
Param item = CCSC(=N)NCCC[C@H](N)C(=O)O ; retrieve measured pKi.
7.77

====

# assay_procedure: Inhibition of bovine arginase
# Parameters: species or system Bos taurus
value_kind: pKi
On this scale, pKi is minus log10 of a concentration expressed in M (mol/L).

GET /values?readout=pKi&item= N=C(NO)NCCC[C@H](N)C(=O)O
4.52

====

# study_target: Nitric oxide synthase 3 (Bos taurus)
# Sequence (P29473 whole entry): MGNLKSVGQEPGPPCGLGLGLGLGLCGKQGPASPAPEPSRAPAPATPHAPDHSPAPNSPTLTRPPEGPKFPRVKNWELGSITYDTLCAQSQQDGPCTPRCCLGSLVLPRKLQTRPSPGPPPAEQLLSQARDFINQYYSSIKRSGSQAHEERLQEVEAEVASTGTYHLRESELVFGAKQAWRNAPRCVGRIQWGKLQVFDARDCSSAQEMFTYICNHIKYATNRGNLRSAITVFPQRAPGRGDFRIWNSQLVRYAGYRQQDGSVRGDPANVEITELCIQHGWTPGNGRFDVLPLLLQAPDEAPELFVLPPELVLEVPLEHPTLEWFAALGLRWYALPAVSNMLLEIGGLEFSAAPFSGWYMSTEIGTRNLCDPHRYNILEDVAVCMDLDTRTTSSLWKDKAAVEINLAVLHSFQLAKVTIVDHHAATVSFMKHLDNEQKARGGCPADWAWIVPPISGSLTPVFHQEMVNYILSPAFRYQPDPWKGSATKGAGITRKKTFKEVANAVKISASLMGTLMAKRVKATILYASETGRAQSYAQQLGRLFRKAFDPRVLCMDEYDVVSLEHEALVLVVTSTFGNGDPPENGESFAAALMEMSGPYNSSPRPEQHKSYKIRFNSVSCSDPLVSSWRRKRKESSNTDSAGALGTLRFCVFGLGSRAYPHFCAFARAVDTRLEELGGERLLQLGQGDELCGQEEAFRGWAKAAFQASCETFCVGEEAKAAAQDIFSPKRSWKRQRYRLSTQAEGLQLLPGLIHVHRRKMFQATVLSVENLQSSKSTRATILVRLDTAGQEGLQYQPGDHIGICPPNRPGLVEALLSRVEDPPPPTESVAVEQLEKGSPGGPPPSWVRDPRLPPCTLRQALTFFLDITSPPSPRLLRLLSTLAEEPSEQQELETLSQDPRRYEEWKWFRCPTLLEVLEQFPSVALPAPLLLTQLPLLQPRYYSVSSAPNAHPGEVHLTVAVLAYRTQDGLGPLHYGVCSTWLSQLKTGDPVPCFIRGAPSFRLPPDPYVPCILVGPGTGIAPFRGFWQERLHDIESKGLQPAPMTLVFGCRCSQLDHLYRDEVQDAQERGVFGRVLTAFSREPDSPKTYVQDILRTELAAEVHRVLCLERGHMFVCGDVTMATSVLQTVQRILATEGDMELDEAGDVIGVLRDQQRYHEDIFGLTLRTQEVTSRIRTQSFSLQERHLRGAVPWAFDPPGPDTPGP
value_kind: IC50 (µM)
Report the figure in µM without appending any unit label.

So what's the measured IC50 for this one? N=C(NN)NO
23
